experimental_details: binders of probe aFGF10 on microarray, primary screen, stem cell growth factor project, biochemical, small-molecule microarray, fluorescence 635/667 (AID 1071);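 also: score merges 667 nm spot intensity and signal to noise from triplicate slides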
condition_info: higher = more signal
Kindly state composite z-score for each of the entries shown.
Numbers only.

// known answers, use as guide
compound: COCCOC(=O)N1C(=O)[C@@]2(c3cc(C#CC4(O)CCCCCC4)ccc31)[C@H](c1ccccc1OCCO)N1[C@H](c3ccccc3)[C@H](c3ccccc3)OC(=O)[C@H]1[C@@H]2C(N)=O
composite z-score: 0.498

compound: COCCOC(=O)N1C(=O)[C@@]2(c3cc(C#CCNC(N)=O)ccc31)[C@H](C(=O)N1CCCCCCC1)[C@H]1C(=O)O[C@H](c3ccccc3)[C@H](c3ccccc3)N1[C@@H]2c1ccc(O)cc1
composite z-score: 0.159

compound: C=C(C(=O)CC[C@H](OC(=O)c1cccnc1)c1cccc(OCCO)c1)C(C)C
composite z-score: -0.195

Record composite z-score for all entries; do not skip any.
1. C=CCN1C(=O)[C@]2(CC=C)N=C(c3ccc(OCCCO)cc3)O[C@@H]2c2ccccc21
2. CC(C)C(=C=CC[C@@H](O)c1ccccc1OCCO)C[C@@H](O)COCc1ccccc1
3. COc1cc(CO)cc(I)c1O[C@H]1C=C(C(=O)NCCO)C[C@@H](N(CC2CCCCC2)C(=O)c2ccc(C(F)(F)F)cc2)[C@@H]1O
4. COC(=O)C[C@H]1O[C@]2(C(=O)N(C)c3ccccc32)[C@@H](C)[C@@H]1[Si](C)(C)c1ccc(C)cc1

0.0547
0.729
0.268
0.453

Record composite z-score for all entries; do not skip any.
1. C=C(/C=C/CNS(=O)(=O)c1ccc(C)cc1)[C@H](O)[C@H]1CCCN1S(=O)(=O)c1ccccc1[N+](=O)[O-]
2. COC(=O)[C@@]1(Cc2ccc(OC)cc2)[C@H]2c3cc(C(=O)N(C)C)n(Cc4nc5ccccc5[nH]4)c3C[C@H]2CN1C(=O)c1ccccc1
3. COCC(=C=CC[C@H](O)c1cccc(OCCO)c1)C[C@H](O)c1ccccn1
4. C=CCN1Cc2ccccc2C[C@@]2(N=C(c3ccc(OCCCO)cc3)O[C@H]2c2ccccc2)C1=O
5. COc1ccc(CCNC(=O)[C@@]2(Sc3ccc(C)cc3)CC(=O)N(Cc3cc(C(F)(F)F)cc(C(F)(F)F)c3)[C@@H]2c2ccc(CO)cc2I)cc1

1. 0.395
2. 0.874
3. 0.18
4. -0.364
5. -0.0189
